The reader will find reported growth AUC normalised to DMSO control values listed item by item below.
system: S. enterica typhimurium WT; assay: growth AUC normalised to DMSO control (median) (fraction of control); higher = less growth inhibition, active = hit call of the paper; conditions: 20 µM;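 note: active when median AUC fell below 0.1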
Structures can show the parent of a compound that is named as a salt.
readout.label: growth AUC normalised to DMSO control

compound | readout.label | recorded.value
CCc1c2c(nc3ccc(OC(=O)N4CCC(N5CCCCC5)CC4)cc13)-c1cc3c(c(=O)n1C2)COC(=O)[C@]3(O)CC [Irinotecan hydrochloride trihydrate] | growth AUC normalised to DMSO control | 1
CCn1cc(C(=O)O)c(=O)c2cc(F)c(N3CCNCC3)nc21 [Enoxacin] | growth AUC normalised to DMSO control | 0.00979
CC(C)[C@H](N)C(=O)OCCOCn1cnc2c(=O)nc(N)[nH]c21 [Valacyclovir hydrochloride] | growth AUC normalised to DMSO control | 1
CN(C)/N=N/c1[nH]cnc1C(N)=O [Dacarbazine] | growth AUC normalised to DMSO control | 0.997
CC[N+]1(CC)CCC(=C(c2ccccc2)c2ccccc2)C1C (stereo unspecified) [Prifinium Bromide] | growth AUC normalised to DMSO control | 1
CCN(CC)CC#CCOC(=O)C(O)(c1ccccc1)C1CCCCC1 (stereo unspecified) [Oxybutynin chloride] | growth AUC normalised to DMSO control | 0.999
CCCc1nc2c(C)cc(-c3nc4ccccc4n3C)cc2n1Cc1ccc(-c2ccccc2C(=O)O)cc1 [Telmisartan] | growth AUC normalised to DMSO control | 0.996
N#Cc1ccc(Oc2ccc3c(c2)COB3O)cc1 [Crisaborole] | growth AUC normalised to DMSO control | 1.01
CN[C@@H]1[C@H](O)[C@H](NC)[C@H]2O[C@@]3(O)C(=O)C[C@@H](C)O[C@H]3O[C@@H]2[C@H]1O [Spectinomycin dihydrochloride] | growth AUC normalised to DMSO control | 0.961
CC(C(=O)O)c1ccc2c(c1)CC(=O)c1ccccc1S2 (stereo unspecified) [Zaltoprofen] | growth AUC normalised to DMSO control | 0.998
O=C1[C@H](CC[C@H](O)c2ccc(F)cc2)[C@@H](c2ccc(O)cc2)N1c1ccc(F)cc1 [Ezetimibe] | growth AUC normalised to DMSO control | 1
Cc1ccc(S(=O)(=O)NCl)cc1 [Chloramine-T hydrate] | growth AUC normalised to DMSO control | 0.996
CN1CCCC(n2nc(Cc3ccc(Cl)cc3)c3ccccc3c2=O)CC1 (stereo unspecified) [Azelastine hydrochloride] | growth AUC normalised to DMSO control | 1
CCOC(=O)C1=C[C@@H](OC(CC)CC)[C@H](NC(C)=O)[C@@H](N)C1 [Oseltamivir phosphate] | growth AUC normalised to DMSO control | 0.996
CN(C)CCOC(=O)C(c1ccccc1)C1(O)CCCC1 (stereo unspecified) [Cyclopentolate hydrochloride] | growth AUC normalised to DMSO control | 0.999
COc1ccc([C@@H]2Sc3ccccc3N(CCN(C)C)C(=O)[C@@H]2OC(C)=O)cc1 [Diltiazem hydrochloride] | growth AUC normalised to DMSO control | 0.995

====

The reader will find reported growth AUC normalised to DMSO control values listed item by item below.
system: S. enterica typhimurium tolC KO; experiment: growth AUC normalised to DMSO control (median) (fraction of control); higher = less growth inhibition, active = hit call of the paper; details: 20 µM
Where a name gives a salt, the structure may show the parent alone.
readout.label: growth AUC normalised to DMSO control

molecule | recorded.value
C[C@]12CCC3=C4CCC(=O)C=C4CC[C@H]3[C@@H]1CC[C@@]2(O)CC#N [Dienogest] | 1.02
Nc1ccc(C(=O)NCC(=O)O)cc1 [Aminohippuric acid] | 0.999
CC(COc1ccccc1)N(CCCl)Cc1ccccc1 (stereo not drawn) [Phenoxybenzamine hydrochloride] | 0.99
NC[C@H]1O[C@H](O[C@H]2[C@H](O[C@@H]3O[C@H](CO)[C@@H](O)[C@H]3O)[C@@H](O)[C@H](N)C[C@@H]2N)[C@H](N)[C@@H](O)[C@@H]1O [Ribostamycin sulfate salt] | 0.99
OCCOCCN1CCN(C2=Nc3ccccc3Sc3ccccc32)CC1 [Quetiapine hemifumarate] | 0.977
Cn1c(=O)cc(N2CCC[C@@H](N)C2)n(Cc2ccccc2C#N)c1=O [Alogliptin benzoate] | 0.992
CCN1C(=O)NC(c2ccccc2)C1=O (stereo not drawn) [Ethotoin] | 1
C=CC1=C(C(=O)O)N2C(=O)[C@@H](NC(=O)/C(=N\O)c3csc(N)n3)[C@H]2SC1 [Cefdinir] | 0.00501

====

system: P. vulgatus WT; assay: growth AUC normalised to DMSO control (median) (fraction of control); higher = less growth inhibition, active = hit call of the paper; conditions: 20 µM
Structures can show the parent of a compound that is named as a salt.
The reader will find reported growth AUC normalised to DMSO control values listed item by item below.
readout.label: growth AUC normalised to DMSO control

compound | system | recorded.value
COc1cc(C(=O)OCCCN2CCCN(CCCOC(=O)c3cc(OC)c(OC)c(OC)c3)CC2)cc(OC)c1OC [Dilazep dihydrochloride] | P. vulgatus WT | 0.989
CCn1cc(C(=O)O)c(=O)c2cc(F)c(N3CCNC(C)C3)c(F)c21 (stereo not drawn) [Lomefloxacin hydrochloride] | P. vulgatus WT | 0.11
Cc1nc2n(c(=O)c1CCN1CCC(c3noc4cc(F)ccc34)CC1)CCCC2O (stereo not drawn) | P. vulgatus WT | 0.958
CCCCNc1cc(C(=O)O)cc(S(N)(=O)=O)c1Oc1ccccc1 [Bumetanide] | P. vulgatus WT | 1.01
O=C(O)c1cc(/N=N/c2ccc(S(=O)(=O)Nc3ccccn3)cc2)ccc1O | P. vulgatus WT | 1.02
Cc1c(Cl)cccc1Nc1ccccc1C(=O)O | P. vulgatus WT | 0.803
C[C@]12CCC(=O)C=C1C=C[C@@H]1[C@@H]2CC[C@@]2(C)[C@H]1CC[C@@]21CCC(=O)O1 | P. vulgatus WT | 1.1
CN1CCN(CCCN2c3ccccc3Sc3ccc(Cl)cc32)CC1 [Prochlorperazine dimaleate] | P. vulgatus WT | 0.981
CC(=O)Nc1ccc(CC(=O)O)cc1 | P. vulgatus WT | 1.01
CN(C)CCOC1=Cc2ccccc2Sc2ccc(Cl)cc21 [Zotepine] | P. vulgatus WT | 0.874
Cc1ccc2c(c1)c1c3n2CCNC3CCC1 (stereo not drawn) [Pirlindole mesylate] | P. vulgatus WT | 1.03
COc1ccc2cc([C@@H](C)C(=O)O)ccc2c1 [(R) Naproxen sodium salt] | P. vulgatus WT | 1.07
CN1CCCC(CC2c3ccccc3Sc3ccccc32)C1 (stereo not drawn) [Metixene hydrochloride] | P. vulgatus WT | 0.704
COc1cc(C(=O)NS(=O)(=O)c2ccccc2C)ccc1Cc1cn(C)c2ccc(NC(=O)OC3CCCC3)cc12 | P. vulgatus WT | 0.891
CN[C@@H]1[C@H](O[C@H]2[C@H](O[C@H]3[C@H](O)[C@@H](O)[C@H](N=C(N)N)[C@@H](O)[C@@H]3N=C(N)N)O[C@@H](C)[C@]2(O)C=O)O[C@@H](CO)[C@H](O)[C@H]1O [Streptomycin sulfate] | P. vulgatus WT | 1.09
CC(=O)O[C@]1(C(C)=O)CC[C@H]2[C@@H]3C=C(Cl)C4=CC(=O)[C@@H]5C[C@@H]5[C@]4(C)[C@H]3CC[C@@]21C [Cyproterone acetate] | P. vulgatus WT | 0.907
CCn1cc(C(=O)O)c(=O)c2cc(F)c(N3CCNCC3)cc21 | P. vulgatus WT | 0.865
NS(=O)(=O)c1cc2c(cc1Cl)NC(Cc1ccccc1)NS2(=O)=O (stereo not drawn) [Benzylhydrochlorothiazide] | P. vulgatus WT | 1.1
NS(=O)(=O)c1cc(C(=O)O)cc(N2CCCC2)c1Oc1ccccc1 [Piretanide] | P. vulgatus WT | 1.07
Cc1ccc(S(=O)(=O)NC(=O)NN2CCCCCC2)cc1 [Tolazamide] | P. vulgatus WT | 1.02
CC(=O)Nc1ccccc1 [Acetanilide] | P. vulgatus WT | 1
CCc1ccc(CCOc2ccc(CC3SC(=O)NC3=O)cc2)nc1 (stereo not drawn) | P. vulgatus WT | 0.992
OC(CCN1CCCCC1)(c1ccccc1)C1CC2C=CC1C2 (stereo not drawn) [Biperiden hydrochloride] | P. vulgatus WT | 1.01
O=C(Cn1cnnn1)N[C@@H]1C(=O)N2C(C(=O)O)=C(CSc3nncs3)CS[C@H]12 | P. vulgatus WT | 0.00376
CC1=NN(c2ccccc2)C(=O)C1 | P. vulgatus WT | 1.01
O=C1CC2(CCCC2)CC(=O)N1CCCCN1CCN(c2ncccn2)CC1 [Buspirone hydrochloride] | P. vulgatus WT | 1.11
CN1C(C(=O)Nc2ccccn2)=C(O)c2ccccc2S1(=O)=O | P. vulgatus WT | 1.04
CCCCCOC(=O)Nc1nc(=O)n([C@@H]2O[C@H](C)[C@@H](O)[C@H]2O)cc1F | P. vulgatus WT | 0.998
COc1ccc2[nH]c([S+]([O-])Cc3ncc(C)c(OC)c3C)nc2c1 (stereo not drawn) | P. vulgatus WT | 1.03
NC(=O)c1cccnc1 [Nicotinamide] | P. vulgatus WT | 1.1
CCOc1ccccc1OCC1CNCCO1 (stereo not drawn) [Viloxazine hydrochloride] | P. vulgatus WT | 0.985
CCn1cc(C(=O)O)c(=O)c2ccc(C)nc21 [Nalidixic acid sodium salt] | P. vulgatus WT | 0.969
COc1ccc(C[C@@H]2c3cc(OC)c(OC)cc3CC[N@+]2(C)CCC(=O)OCCCCCOC(=O)CC[N@@+]2(C)CCc3cc(OC)c(OC)cc3[C@H]2Cc2ccc(OC)c(OC)c2)cc1OC [Cisatracurium besylate] | P. vulgatus WT | 1.05
